Tested on: HeLa
PROCEDURE_TEXT: Anti viral activity against human rhinovirus (HRV) in H1HeLa cells
Assay type: functional, cell-based
Reported EC50 is given for each of the following compounds.
Write the answer as a number in nM, unit excluded.

Answered examples (5):
Request body: readout EC50, system HeLa, query CCOC(=O)/C=C/[C@H](CCC(N)=O)NC(=O)[C@H](Cc1ccc(F)cc1)OC(=O)[C@@H](NC(=O)c1cc(C)on1)C(C)C . Return the value.
100

Same question for CCOC(=O)/C=C/[C@H](CCC(N)=O)NC(=O)[C@@H](CC(=O)[C@@H](NC(=O)c1cc(C)on1)C(C)C)Cc1ccc(F)cc1 please.
100

For CCOC(=O)/C=C/[C@H](CCC(N)=O)NC(=O)[C@H](Cc1ccc(F)cc1)NC(=O)[C@@H](NC(=O)c1cc(C)on1)C(C)C then?
420

Also, CCOC(=O)/C=C/[C@H](C[C@@H]1CCNC1=O)NC(=O)[C@@H](CC(=O)[C@@H](NC(=O)c1cc(C)on1)C(C)C)Cc1ccc(F)cc1 please.
5

What do we get for CCOC(=O)/C=C/[C@H](C[C@@H]1CCNC1=O)NC(=O)[C@H](Cc1ccc(F)cc1)OC(=O)[C@@H](NC(=O)c1cc(C)on1)C(C)C ?
7

New cases:
Request: EC50, test system HeLa, entry CCOC(=O)/C=C/[C@H](C[C@@H]1CCNC1=O)NC(=O)[C@H](Cc1ccc(F)cc1)NC(=O)[C@@H](NC(=O)c1cc(C)on1)C(C)C
10
